Values compiled from PubChem BioAssay AID1250.

# Experiment summary: inhibitors of Bluetongue virus cytopathic effect, confirmation, arbovirus, BSR cells (AID 1250)
# Condition notes: BSR cells, Bluetongue virus CPE, ATP luminescence, 72 h; at 20 µM (top of the series)
Binary classification by CPE inhibition, with 6% as an inclusive lower bound for y; all other cases are n.

Task: Could you please find out whether O=C(Nc1nc2ccccc2s1)c1ccc(OCC2CCCO2)cc1 (stereo unspecified) has CPE inhibition that meets 6% or exceeds it?
Output: n

Task: Textbook exercise: given the entry `O=C(O)c1cnc(-c2ccccc2)nc1Sc1ccc(Cl)cc1` , state whether its CPE inhibition is greater than or equal to 6%.
Output: y

Task: Tell me whether CPE inhibition is at least 6% here: `O=c1/c(=C/c2ccc(O)cc2)sc2n1CCCN=2`
Output: n

Task: Has `CC(C)c1ccc(C2=C(O)c3ccccc3C(=O)C2=O)cc1` a recorded CPE inhibition greater than or equal to 6%?
Output: y

Task: Decide: CPE inhibition of `C/C(=N\NC(=O)COc1ccc([N+](=O)[O-])cc1)C(C)(C)C` >= 6%?
Output: n

Task: Could you tell me if the measured CPE inhibition of CCCCN(CCCC)CC(O)COc1ccccc1Br (stereo unspecified) reaches 6% or more?
Output: y
